Measured values drawn from patent US5283180A for this set.

Answer each item with its documented % activity.
System: Bee Brain Activity for Ac-luciferin (esterase activity of bee brain extract)
Assay type: biochemical, honey bees
assay conditions: bee brain extract; 3.125 ppb pesticide
Answers are plain numbers, in %.

compound	system tested	reported measurement
CCOP(=S)(OCC)Oc1nc(Cl)c(Cl)cc1Cl [Chlorpyrifos]	Bee Brain Activity for Ac-luciferin (esterase activity of bee brain extract)	13
CNC(=O)ON=C(C)SC [Methomyl]	Bee Brain Activity for Ac-luciferin (esterase activity of bee brain extract)	45
COC(=O)C=C(C)OP(=O)(OC)OC [Mevinphos]	Bee Brain Activity for Ac-luciferin (esterase activity of bee brain extract)	12

Answer for every listed entry: what is its % activity? The entries follow.
1. CCOP(=S)(OCC)SCSCC [Phorate]
2. CCOP(=S)(OCC)SCCSCC [Disulfoton]

23
66

###

Test system: Bee Brain Activity for Ac-luciferin (esterase activity of bee brain extract)
Type: biochemical, honey bees
assay conditions: bee brain extract; 6.25 ppb pesticide
Answer each item with its documented % activity.
Give bare numbers, in %.

Some entries whose results are on file:
compound	value units	% activity
CNC(=O)ON=C(C)SC	%	16
CCOP(=S)(OCC)SCCSCC	%	47
CCOP(=S)(OCC)Oc1nc(Cl)c(Cl)cc1Cl	%	10
COC(=O)C=C(C)OP(=O)(OC)OC	%	9
CCOC(=O)CC(SP(=S)(OC)OC)C(=O)OCC (stereo not shown)	%	53

Answer for every listed entry: what is its % activity? The entries follow.
1. CCOP(=S)(OCC)SCSCC [Phorate]
2. CNC(=O)Oc1cccc2c1OC(C)(C)C2

1: 8; 2: 59

###

Tested on: Bee Brain Activity for Ac-luciferin (esterase activity of bee brain extract)
Assay type: biochemical, honey bees
assay conditions: bee brain extract; 12.5 ppb pesticide
endpoint: % activity
Field: value (include unit after the number)

Answer for every listed entry: what is its % activity? The entries follow.
1. CCOP(=S)(OCC)SCSCC [Phorate]
2. CCOP(=S)(OCC)SCCSCC [Disulfoton]
3. CCOC(=O)CC(SP(=S)(OC)OC)C(=O)OCC (stereo not shown) [Malathion]
4. CNC(=O)Oc1cccc2c1OC(C)(C)O2 [Bendocarb]
5. CNC(=O)Oc1cccc2c1OC(C)(C)C2 [Carbofuran]

1: 3%; 2: 35%; 3: 50%; 4: 50%; 5: 41%

Answer for every listed entry: what is its % activity? The entries follow.
1. CNC(=O)Oc1ccccc1OC(C)C [Propoxur]
2. CNC(=O)ON=C(C)SC [Methomyl]

1. 43%
2. 20%

###

Test system: Bee Brain Activity for Ac-luciferin (esterase activity of bee brain extract)
Assay type: biochemical, honey bees
assay conditions: bee brain extract; 25 ppb pesticide
endpoint: % activity
Field: value (include unit after the number)

compound	endpoint	reported measurement
CNC(=O)Oc1ccccc1OC(C)C	% activity	44%
CNC(=O)ON=C(C)SC	% activity	12%
CCOP(=S)(OCC)Oc1cc(C)nc(C(C)C)n1	% activity	40%
CNC(=O)Oc1cccc2c1OC(C)(C)O2 [Bendocarb]	% activity	26%
CC[S+]([O-])CCSP(=O)(OC)OC (centres unmarked)	% activity	21%
CNC(=O)Oc1cccc2c1OC(C)(C)C2	% activity	32%
CCOC(=O)CC(SP(=S)(OC)OC)C(=O)OCC (centres unmarked)	% activity	27%

// next entry
Could you share which % activity value was measured for CCOP(=S)(OCC)SCCSCC ?
19%

###

Answer each item with its documented % activity.
Test system: Bee Brain Activity for Ac-luciferin (esterase activity of bee brain extract)
Assay type: biochemical, honey bees
assay conditions: bee brain extract; 0.625 ppb pesticide
Give bare numbers, in %.

Some entries whose results are on file:
molecule	% activity / %
CCOP(=S)(OCC)SCSP(=S)(OCC)OCC	71
COP(=O)(OC)OC(Br)C(Cl)(Cl)Br (stereo not drawn)	29
COC(=O)C=C(C)OP(=O)(OC)OC	52
CC[S+]([O-])CCSP(=O)(OC)OC (stereo not drawn)	43
COP(=S)(OC)Oc1ccc([N+](=O)[O-])cc1	62

Could you share which % activity value was measured for CCOP(=S)(OCC)Oc1nc(Cl)c(Cl)cc1Cl ?
68

###

System: Bee Brain Activity for Ac-luciferin (esterase activity of bee brain extract)
Format: biochemical, honey bees
assay conditions: bee brain extract; 1.25 ppb pesticide
Experimental: 1. Sample is preincubated with a predetermined quantity (dilution 1:200) of brain preparation for 5 minutes. 2. Luciferin acetate (200 pmoles) is added to the incubation mixture for additional 5 minutes. 3. […] 4. Bioluminescence reading for 2-5 seconds is monitored. 5. The reading of the pesticide sample is compared to the control sample to quantitate the percent inhibition of the sample (see Tables 3, 4, 5 and 6) . […]
Answer each item with its documented % activity.
One number for each entry, in %.

compound	reported measurement
COP(=S)(OC)Oc1ccc([N+](=O)[O-])cc1 [Methyl parathion]	40
CCOP(=S)(OCC)SCSP(=S)(OCC)OCC [Ethion]	65
CCOP(=S)(OCC)SCSCC [Phorate]	70

Answer for every listed entry: what is its % activity? The entries follow.
1. CCOP(=S)(OCC)Oc1nc(Cl)c(Cl)cc1Cl [Chlorpyrifos]
2. CC[S+]([O-])CCSP(=O)(OC)OC (stereo not drawn) [Oxydemeton-methyl]
3. COC(=O)C=C(C)OP(=O)(OC)OC [Mevinphos]

[34, 47, 48]

###

Tested on: Bee Brain Activity for Ac-luciferin (esterase activity of bee brain extract)
Assay type: biochemical, honey bees
assay conditions: bee brain extract; 2.5 ppb pesticide
endpoint: % activity
Field: value (include unit after the number)

Some entries whose results are on file:
molecule	% activity
CCOP(=S)(OCC)Oc1nc(Cl)c(Cl)cc1Cl	24%
CCOP(=S)(OCC)SCSCC [Phorate]	29%

Answer for every listed entry: what is its % activity? The entries follow.
1. CC[S+]([O-])CCSP(=O)(OC)OC (stereo not drawn)
2. COP(=S)(OC)Oc1ccc([N+](=O)[O-])cc1
3. CCOP(=S)(OCC)SCSP(=S)(OCC)OCC
4. COC(=O)C=C(C)OP(=O)(OC)OC

1. 37%
2. 23%
3. 37%
4. 24%

###

Answer each item with its documented % Inhibition.
Test system: Silkworm Brain Activities
run description: Bioluminescence pesticide assay: inhibition of silkworm brain activities
Assay type: biochemical
assay conditions: pesticide at 25 PPB
Answers are plain numbers, in %.

Some entries whose results are on file:
compound	system tested	reported measurement
COP(=S)(OC)Oc1ccc([N+](=O)[O-])cc1	Silkworm Brain Activities	0
CCOP(=S)(OCC)SCCSCC	Silkworm Brain Activities	25
CCOP(=S)(OCC)SCSCC [Phorate]	Silkworm Brain Activities	50.5
CCOP(=S)(OCC)Oc1cc(C)nc(C(C)C)n1	Silkworm Brain Activities	0
COC(=O)C=C(C)OP(=O)(OC)OC	Silkworm Brain Activities	50
CC[S+]([O-])CCSP(=O)(OC)OC (stereo not drawn)	Silkworm Brain Activities	0

Answer for every listed entry: what is its % Inhibition? The entries follow.
1. COP(=O)(OC)OC=C(Cl)Cl
2. COP(=O)(OC)OC(Br)C(Cl)(Cl)Br (stereo not drawn)
3. CCOP(=S)(OCC)SCSP(=S)(OCC)OCC

1: 100.0; 2: 98.0; 3: 77.0
